# study_system: human TPO receptor (Homo sapiens)
# Construct: expressed in transfected cells
# protocol_text: Proliferation of TPO-dependent cell line UT7/EPO-mpl, MTT method (Assay Examples 1, 3, 4)
# Format: cell-based
# particulars: UT7/EPO-mpl cells; value in the presence of 10 ng/ml TPO taken as 100% standard; method of Assay Example 1
// values below are reported Efficacy (%) (maximal growth rate)

{"columns": ["input_smiles", "Efficacy (%) (maximal growth rate)"],
 "data": [
  ["CC1=NN(c2ccc(Cl)c(Cl)c2)C(=O)C1=C(C)NNC(=O)c1cc2ccccc2cc1O", 21],
  ["CC1=NN(c2ccc(C(F)(F)F)cc2)C(=O)C1=C(C)NNC(=O)c1ccc(C(=O)O)cc1", 83],
  ["CC1=NN(c2ccc(C(F)(F)F)cc2)C(=O)C1=C(C)NNC(=O)c1ccc(O)cc1", 63],
  ["CC1=NN(c2ccccc2)C(=O)C1=C(C)NNC(=O)c1ccccc1[N+](=O)[O-]", 39],
  ["CC1=NN(c2cccc(C(F)(F)F)c2)C(=O)C1=C(C)NNC(=O)c1cccc([N+](=O)[O-])c1", 73],
  ["CC1=NN(c2ccc(C(C)(C)C)cc2)C(=O)C1=C(C)NNC(=O)c1ccc(O)cc1", 89],
  ["CC1=NN(c2ccc(C(C)(C)C)cc2)C(=O)C1=C(C)NNC(=O)c1ccccc1O", 129],
  ["CC1=NN(c2ccccn2)C(=O)C1=C(C)NNC(=O)c1ccc(O)cc1O", 71]
]}

----------
# study_system: human TPO receptor (Homo sapiens, UniProt P40238)
# Construct: expressed in transfected cells
# Sequence (P40238 26-635): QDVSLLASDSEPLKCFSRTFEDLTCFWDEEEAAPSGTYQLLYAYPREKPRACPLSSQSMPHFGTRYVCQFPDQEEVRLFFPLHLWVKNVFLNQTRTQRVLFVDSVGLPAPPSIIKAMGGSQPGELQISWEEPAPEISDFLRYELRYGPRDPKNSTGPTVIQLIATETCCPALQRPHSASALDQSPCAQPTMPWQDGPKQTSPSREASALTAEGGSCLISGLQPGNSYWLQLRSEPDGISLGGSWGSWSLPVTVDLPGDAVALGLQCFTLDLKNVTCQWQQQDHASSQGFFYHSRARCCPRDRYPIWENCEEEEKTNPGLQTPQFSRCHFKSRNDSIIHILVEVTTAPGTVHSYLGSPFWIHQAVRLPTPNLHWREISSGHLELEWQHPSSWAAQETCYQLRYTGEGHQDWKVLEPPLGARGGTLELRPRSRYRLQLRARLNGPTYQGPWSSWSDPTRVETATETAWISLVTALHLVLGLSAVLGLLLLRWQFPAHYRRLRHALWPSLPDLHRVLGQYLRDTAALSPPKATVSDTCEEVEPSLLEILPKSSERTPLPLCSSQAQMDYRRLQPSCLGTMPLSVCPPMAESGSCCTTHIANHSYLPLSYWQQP
# protocol_text: Proliferation of TPO-dependent cell line UT7/EPO-mpl, MTT method (Assay Examples 1, 3, 4)
# Format: cell-based
# particulars: UT7/EPO-mpl cells; value in the presence of 10 ng/ml TPO taken as 100% standard; method of Assay Example 1; read-out: Efficacy (%) (maximal growth rate)
Decision: Emax compared against 50%; not below it gives yes, below it gives no.

{"columns": ["molecule", "assigned_category"],
 "data": [
  ["Cc1ccc(-n2nc(C)c(C=NN3C(=O)C(=Cc4ccc(C(=O)O)cc4)SC3=S)c2O)cc1C [Reference Synthetic Example 1, reference compound]", "no"],
  ["COC(=O)c1ccc(C(=O)NNC(C)=C2C(=O)N(c3ccc(C)c(C)c3)N=C2C)cc1", "yes"],
  ["COC(=O)c1ccc(C(=O)NNC(C)=C2C(=O)N(c3ccc(C(F)(F)F)cc3)N=C2C)cc1", "yes"],
  ["CC1=NN(c2cccc(C(F)(F)F)c2)C(=O)C1=C(C)NNC(=O)c1ccc([N+](=O)[O-])cc1", "no"],
  ["CC1=NN(c2ccc(Cl)c(Cl)c2)C(=O)C1=C(C)NNC(=O)c1cccc(O)c1", "yes"],
  ["COC(=O)c1ccc(C(=O)NNC(C)=C2C(=O)N(c3cccc(C(F)(F)F)c3)N=C2C)cc1", "yes"],
  ["CC1=NN(c2ccc(C)c(C)c2)C(=O)C1=C(C)NNC(=O)c1cccc([N+](=O)[O-])c1", "yes"],
  ["Cc1ccc(-n2nc(C)c(C=NN3CC(=O)N(c4ccc(C(=O)O)cc4)C3=S)c2O)cc1C [Reference Synthetic Example 4, reference compound]", "yes"]
]}

----------
Recorded Efficacy (%) (maximal growth rate) for the following molecules
# study_system: human TPO receptor (Homo sapiens)
# Construct: expressed in transfected cells
# protocol_text: Proliferation of TPO-dependent cell line UT7/EPO-mpl, MTT method (Assay Examples 1, 3, 4)
# Assay type: cell-based
# particulars: UT7/EPO-mpl cells; value in the presence of 10 ng/ml TPO taken as 100% standard; method of Assay Example 1
# Protocol: The reactivity of Synthetic Example 56, the compound of the present invention, with thrombopoietin (TPO) receptor was assayed using a human leukemic cell line, UT7/EPO-mpl. UT7/EPO-mpl is a stable transformed cell line obtained by introducing into human leukemic cell line UT7/EPO a vector that induces expression of human TPO receptor (c-mp1) under control of a cytomegaloviral promoter by the method of Takatoku et al. (J. Biol. Chem., 272:7259-7263 (1997)). […]

{"columns": ["input_smiles", "Efficacy (%) (maximal growth rate)"],
 "data": [
  ["CC1=NN(c2ccc(C(C)(C)C)cc2)C(=O)C1=C(C)NNC(=O)c1ccc(O)cc1O", 78],
  ["CC1=NN(c2ccc(Cl)c(Cl)c2)C(=O)C1=C(C)NNC(=O)c1cccc([N+](=O)[O-])c1", 80],
  ["CC1=NN(c2ccc(C)c(C)c2)C(=O)C1=C(C)NNC(=O)c1ccccc1[N+](=O)[O-]", 110]
]}

----------
# study_system: human TPO receptor (Homo sapiens)
# Construct: expressed in transfected cells
# protocol_text: Proliferation of TPO-dependent cell line UT7/EPO-mpl, MTT method (Assay Examples 1, 3, 4)
# Type: cell-based
# particulars: UT7/EPO-mpl cells; concentration giving 50% of the maximum cell growth observed with the same compound
Recorded EC50 by entry

{"columns": ["input_smiles", "study_system", "EC50, µg/mL"],
 "data": [
  ["CC1=NN(c2ccc(Cl)c(Cl)c2)C(=O)C1=C(C)NNC(=O)c1cccc(N)c1", "human TPO receptor (Homo sapiens)", 0.015],
  ["CC1=NN(c2ccc(C)c(C)c2)C(=O)C1=C(C)NNC(=O)c1ccc(C(=O)O)cc1", "human TPO receptor (Homo sapiens)", 0.0022],
  ["CC1=NN(c2cccc([N+](=O)[O-])c2)C(=O)C1=C(C)NNC(=O)c1ccc(C(C)(C)C)cc1", "human TPO receptor (Homo sapiens)", 0.13],
  ["CC1=NN(c2ccc(C)c(C)c2)C(=O)C1=C(C)NNC(=O)c1ccc([N+](=O)[O-])cc1", "human TPO receptor (Homo sapiens)", 0.1],
  ["CC1=NN(c2ccc(C(F)(F)F)cc2)C(=O)C1=C(C)NNC(=O)c1ccc(C(=O)O)cc1", "human TPO receptor (Homo sapiens)", 0.002],
  ["CC1=NN(c2ccc(I)cc2)C(=O)C1=C(C)NNC(=O)c1cccc([N+](=O)[O-])c1", "human TPO receptor (Homo sapiens)", 0.083]
]}

----------
Below is a list of entries, each paired with its recorded Efficacy (%) (maximal growth rate) value.
# study_system: human TPO receptor (Homo sapiens)
# Construct: expressed in transfected cells
# protocol_text: Proliferation of TPO-dependent cell line UT7/EPO-mpl, MTT method (Assay Examples 1, 3, 4)
# Format: cell-based
# particulars: UT7/EPO-mpl cells; value in the presence of 10 ng/ml TPO taken as 100% standard; method of Assay Example 1
observation_type: Efficacy (%) (maximal growth rate)

{"columns": ["compound", "study_system", "measured_result"],
 "data": [
  ["CC1=NN(c2ccc(C)c(C)c2)C(=O)C1=C(C)NNC(=O)c1cc(O)cc(O)c1 [compound 3]", "human TPO receptor (Homo sapiens)", 82],
  ["CC1=NN(c2cccc(C(F)(F)F)c2)C(=O)C1=C(C)NNC(=O)c1ccc(O)c(O)c1 [compound 49]", "human TPO receptor (Homo sapiens)", 62],
  ["CC1=NN(c2ccc(C(C)(C)C)cc2)C(=O)C1=C(C)NNC(=O)c1ccc(C(C)(C)C)cc1 [compound 72]", "human TPO receptor (Homo sapiens)", 88],
  ["CC1=NN(c2ccc(C)c(C)c2)C(=O)C1=C(C)NNC(=O)c1ccc(O)cc1 [compound 54]", "human TPO receptor (Homo sapiens)", 61],
  ["CC1=NN(c2ccc(C(C)(C)C)cc2)C(=O)C1=C(C)NNC(=O)c1ccc(O)c(O)c1 [compound 27]", "human TPO receptor (Homo sapiens)", 75],
  ["CC1=NN(c2ccc(C)c(C)c2)C(=O)C1=C(C)NNC(=O)c1ccc(O)cc1O [compound 56]", "human TPO receptor (Homo sapiens)", 96],
  ["CC1=NN(c2ccc(Cl)c(Cl)c2)C(=O)C1=C(C)NNC(=O)c1ccc(O)c(O)c1 [compound 65]", "human TPO receptor (Homo sapiens)", 70],
  ["CC1=NN(c2ccccc2)C(=O)C1=C(C)NNC(=O)c1cc2ccccc2cc1O [compound 18]", "human TPO receptor (Homo sapiens)", 94],
  ["CC1=NN(c2ccc(I)cc2)C(=O)C1=C(C)NNC(=O)c1cccc([N+](=O)[O-])c1 [compound 43]", "human TPO receptor (Homo sapiens)", 87],
  ["CC1=NN(c2ccc(C(F)(F)F)cc2)C(=O)C1=C(C)NNC(=O)c1cc2ccccc2cc1O [compound 32]", "human TPO receptor (Homo sapiens)", 90],
  ["CC1=NN(c2ccccc2)C(=O)C1=C(C)NNC(=O)c1ccc(O)cc1O [compound 19]", "human TPO receptor (Homo sapiens)", 100],
  ["CC1=NN(c2ccc(Cl)c(Cl)c2)C(=O)C1=C(C)NNC(=O)c1ccc(C(F)(F)F)cc1 [compound 79]", "human TPO receptor (Homo sapiens)", 81],
  ["CC1=NN(c2ccc(Cl)c(Cl)c2)C(=O)C1=C(C)NNC(=O)c1ccc(O)cc1O [compound 64]", "human TPO receptor (Homo sapiens)", 74]
]}

Values from patent US8053453B2
